# Test system: MDA-MB-231
# assay_details: Antiproliferative activity against human MDA-MB-231 cells after 96 hrs by WST1 assay
# Assay type: functional
# experimental_parameters: MDA-MB-231, 96 h
Please respond with Satisfied when measured GI50 is strictly beneath 5 µM, and with Not satisfied in all other cases.

Exercise: For COc1cc2c(cc1OS(N)(=O)=O)CC[C@@H]1[C@@H]2CC[C@]2(C)[C@@H](OS(N)(=O)=O)CC[C@@H]12 , is the recorded GI50 below the cut-off of 5 µM?
Key: Satisfied

Exercise: What do you have for CC(C)(C)c1cc2c(cc1OS(N)(=O)=O)CC[C@@H]1[C@@H]2CC[C@]2(C)[C@@H](OC(N)=O)CC[C@@H]12 ?
Key: Not satisfied

Exercise: // query: C[C@]12CC[C@@H]3c4ccc(OS(N)(=O)=O)cc4CC[C@H]3[C@@H]1CC[C@@H]2OC(N)=O
Key: Not satisfied

Exercise: Moving on to CCCCc1cc2c(cc1O)CC[C@@H]1[C@@H]2CC[C@]2(C)[C@@H](O)CC[C@@H]12
Key: Not satisfied

Exercise: Thanks! And CCc1cc2c(cc1O)CC[C@@H]1[C@@H]2CC[C@]2(C)[C@@H](O)CC[C@@H]12 ?
Key: Not satisfied

Exercise: Then what about the molecule Cc1cc2c(cc1OS(N)(=O)=O)CC[C@@H]1[C@@H]2CC[C@]2(C)[C@@H](OC(N)=O)CC[C@@H]12 ?
Key: Satisfied

Exercise: Input COc1cc2c(cc1O)CC[C@@H]1[C@@H]2CC[C@]2(C)[C@@H](O)CC[C@@H]12
Key: Satisfied

---

# assay_target: Steryl-sulfatase (Homo sapiens, UniProt P08842)
# Sequence (P08842 whole entry): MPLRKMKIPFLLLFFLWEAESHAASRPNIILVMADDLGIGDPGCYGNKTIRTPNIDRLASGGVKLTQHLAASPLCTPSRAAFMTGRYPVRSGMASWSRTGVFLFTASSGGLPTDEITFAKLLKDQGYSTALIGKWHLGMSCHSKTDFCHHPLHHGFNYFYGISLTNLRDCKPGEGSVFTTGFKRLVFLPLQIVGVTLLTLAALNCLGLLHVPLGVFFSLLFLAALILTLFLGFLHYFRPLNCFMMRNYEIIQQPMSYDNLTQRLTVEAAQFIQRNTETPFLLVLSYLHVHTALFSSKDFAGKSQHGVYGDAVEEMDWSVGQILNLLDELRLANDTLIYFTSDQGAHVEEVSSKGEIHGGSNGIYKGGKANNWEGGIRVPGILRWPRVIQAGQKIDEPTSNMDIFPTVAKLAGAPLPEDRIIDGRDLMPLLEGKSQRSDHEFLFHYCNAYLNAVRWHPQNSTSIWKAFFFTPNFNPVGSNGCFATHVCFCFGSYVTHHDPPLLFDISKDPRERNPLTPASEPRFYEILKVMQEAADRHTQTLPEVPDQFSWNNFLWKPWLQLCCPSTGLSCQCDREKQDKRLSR
I'd appreciate it if you could supply pIC50 values for the items below.
# pIC50 is unitless: minus log10 of the molar concentration; print number only

Exercise: I would be grateful if you could share the reported pIC50 for C[C@]12CC[C@@H]3c4ccc(OS(N)(=O)=O)cc4CC[C@H]3[C@@H]1CC[C@@H]2OC(N)=O .
Key: 7.40

Exercise: Lookup COc1cc2c(cc1OS(N)(=O)=O)CC[C@@H]1[C@@H]2CC[C@]2(C)[C@@H](OC(N)=O)CC[C@@H]12
Key: 6.28

This collection of values is drawn from ChEMBL document CHEMBL1148769.
